These measurements were taken from the RNAGym collection of RNA variant scans (doi:10.7554/elife.90254).

B1: LINE1-full (parent)
chain: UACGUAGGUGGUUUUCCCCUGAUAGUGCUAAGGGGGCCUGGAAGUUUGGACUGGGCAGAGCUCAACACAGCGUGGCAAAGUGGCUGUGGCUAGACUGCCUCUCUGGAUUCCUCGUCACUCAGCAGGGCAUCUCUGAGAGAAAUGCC

Variants of: B1
Experiment notes: self-cleavage, relative activity (ratio to wild type); higher = more cleavage; in vitro, sequencing; the parent is a self-cleaving ribozyme
The following variants are shown together with reported self-cleavage values.

Item sequence | self-cleavage
UACGUAGGUGGUUUUCCCCUGAUAGUGCUGAGGGGGCCUGGAAGUUUGGACUGGGCAGAGCUCAACACAGCGUGACAAAGUGGCUGUGGCUAGACUGCCUCUCUGGAUUCCUCGUCACUCAGCAGGGCAUCUCUGAGAGAAAUGCC [A30G G75A] | 1.05
UACGUAGGUGGUUUUCCCCUGAUAGUGCUAAGGGGGCCUGGAGGUUUGGACUGGGCAGAGCUCAACACAGCGUGGCAAAGUGGCUGUGGCUAGACUGCCUCGCUGGAUUCCUCGUCACUCAGCAGGGCAUCUCUGAGAGAAAUGCC [A43G U102G] | 0.84
UACGUAGGUGGUUUUCCCCUGAUAGUGCUAAGGGGGCCUGGAAGUUUGGACUGGGCAGAGCUCAACACAGCGUGGCAAAGUGGCUGUGGCUAGACUGCCUCACUGGAUUCCUCGUCACUCAGCAGGGCGUCUCUGAGAGAAAUGCC [U102A A129G] | 1.72
UACGUAGGUGGUUUUCCCCUGAUAGUGCUAAGGGGGCCUGGAAGUUUGGACUGGCCAGAGCUCAACACAGCAUGGCAAAGUGGCUGUGGCUAGACUGCCUCUCUGGAUUCCUCGUCACUCAGCAGGGCAUCUCUGAGAGAAAUGCC [G55C G72A] | 0.08
UACGUAGGUGGUUUUCCCCAGAUAGUGCUAAGGGGGCCUGGAAGUUUGGACUGGGCAGAGCUCAACACAGCAUGGCAAAGUGGCUGUGGCUAGACUGCCUCUCUGGAUUCCUCGUCACUCAGCAGGGCAUCUCUGAGAGAAAUGCC [U20A G72A] | 1.31
UACGUAGGUGGUUUUCCCCUGAUAGUGCUAAGGGGGCCUGGAAGUUUAGACAGGGCAGAGCUCAACACAGCGUGGCAAAGUGGCUGUGGCUAGACUGCCUCUCUGGAUUCCUCGUCACUCAGCAGGGCAUCUCUGAGAGAAAUGCC [G48A U52A] | 1.22
UACGUAGGUGGUUUUCCCCUGAUAGUGCCAAGGGGGCCUGGAAGUUUGGACUGGGCAGAGCUCAACACAGCGUGGCAAAGUGGCUGUGGCUAGACUGCCUCUCUGGAUUCCUCGUCACUCAACAGGGCAUCUCUGAGAGAAAUGCC [U29C G122A] | 1.68
UACGUAGGUGGUUUUCCCCUGAUAGUGCUAAGGGGGCCUGGAAGUUUGGACUGGGCAGAGCUCAACACAGCUUGGCAAAGUGGCUGUGGCUAGACUGCCUCUCUGGAUUCCUCGUCACUCGGCAGGGCAUCUCUGAGAGAAAUGCC [G72U A121G] | 1.32
UACGUAGGUGGUUUUCCCCUGAUAGUGCUAAGGGGGCCUGGAAGUUUGGACUGGGCAGAGCUCAACACAGCGUGGCAGAGUGGCAGUGGCUAGACUGCCUCUCUGGAUUCCUCGUCACUCAGCAGGGCAUCUCUGAGAGAAAUGCC [A78G U85A] | 0.09
UACGUAGGUGGUUUUCCCCUGAUAGUGCUAAGGGGGCCUGGGAGUUUGGACUGGGCAGAGCCCAACACAGCGUGGCAAAGUGGCUGUGGCUAGACUGCCUCUCUGGAUUCCUCGUCACUCAGCAGGGCAUCUCUGAGAGAAAUGCC [A42G U62C] | 0.08
UACGUAGGUGGUUUUCCCCUGAUAGUGCUAAGGGGGCCUGGAAGUUUGGACUGGGCAGAGCUCAACACAGCGUGGCAAAGUGGCUGUGGCUAGACUGCCUCUCUGGAUUCCUCGUCACUCAGCAGGGCGUCUCGGAGAGAAAUGCC [A129G U134G] | 1.65
UACGUAGGUGGUUUUCCCCUGAUAGUGCUAGGGGGGCCUGGAAAUUUGGACUGGGCAGAGCUCAACACAGCGUGGCAAAGUGGCUGUGGCUAGACUGCCUCUCUGGAUUCCUCGUCACUCAGCAGGGCAUCUCUGAGAGAAAUGCC [A31G G44A] | 2.09
UACGUAGGUGGUUUUCCCCUGAUAGUGCUAAGGGGGCCUGGAAGUUUGGACUGGGCCGAGCUCAACACAGCGUGGCAAAGUGGCUGUGGCUAGACUGCCUCUCUGGAUUCCUCGUCACUCAGCAGGGCGUCUCUGAGAGAAAUGCC [A57C A129G] | 0.14
UACGUAGGUGGGUUUCCCCUGACAGUGCUAAGGGGGCCUGGAAGUUUGGACUGGGCAGAGCUCAACACAGCGUGGCAAAGUGGCUGUGGCUAGACUGCCUCUCUGGAUUCCUCGUCACUCAGCAGGGCAUCUCUGAGAGAAAUGCC [U12G U23C] | 1.32
UACGUAGGUGGUUUUCCCCUGAUAGUGCUAAGGGGGCCUGGAAGUUUGGACUGGGCAGAGCUCAACACAGCGUGGCAAAGUGGCUGUGGCUAGACUGCCUCUCUGGAUGCCUCGUCACUCAGCAGGGCAUCUCUGAGAGAGAUGCC [U109G A141G] | 0.93
UACGUAGGUGGUUUUCCCCUGAUAGUGCUAAGGGGGCCUGGAAGUUUGGACUGGGCAGUGCUCAACACAGCGUGGCAAAGUGGCUGUGGCUAGACUGCCUCUCUGGAUUCCUCGUCACUCAGCAGGGCAACUCUGAGAGAAAUGCC [A59U U130A] | 0.74
UACGUAGGUGGUUUUCCCCUGAUAGUGCUAAGGGGGCCUGGAAGUUUGGACUGGGCAGAGCUCAACACAGCGUGGCAAAGUGGCCGUGGCCAGACUGCCUCUCUGGAUUCCUCGUCACUCAGCAGGGCAUCUCUGAGAGAAAUGCC [U85C U91C] | 0.06
UACGUAUGUGGUUUUCCCCUGAUAGUGCUAAGGGGGCCUGGAAGUUUGGACUGGGCAGAGCUCAACACAGCGUGGCAGAGUGGCUGUGGCUAGACUGCCUCUCUGGAUUCCUCGUCACUCAGCAGGGCAUCUCUGAGAGAAAUGCC [G7U A78G] | 0.88
UACGUAGGUGGUUUUCCCCUGAUAGUGCUAAGGGGGCCUGGAAGUUUGGACUGGGCGGAGCUCAACACAGCGUGGCAAAGUGGCUGUGGCUAGACUGCCUCUCUGGAUUCCUCGUCACUCAGCAUGGCAUCUCUGAGAGAAAUGCC [A57G G125U] | 0.92
UACGUAGGUGGUUUUCCCCUGAUAGUGCUAAGGGGGCCUGGAAGUUUGGUCUGGGCAGAGCUCAACACAGCGUUGCAAAGUGGCUGUGGCUAGACUGCCUCUCUGGAUUCCUCGUCACUCAGCAGGGCAUCUCUGAGAGAAAUGCC [A50U G74U] | 1.04
UACGUAGGUGGUUUUCCCCUGAUAGUGCUAAGGGGGCCUGGAAGUUUGGUCUGGGCAGAGCUCAAUACAGCGUGGCAAAGUGGCUGUGGCUAGACUGCCUCUCUGGAUUCCUCGUCACUCAGCAGGGCAUCUCUGAGAGAAAUGCC [A50U C66U] | 0.01
UACGUAGGUGGUUUUCCCCUGAUAGUGCUAAGGGGGCUUGGAAGUUUGGACUGGGCAGAGCUCAACACAGCGUGGCAAAGUGGCUGUGGCUAGACUGCCUCUCUGGAUUCCUCGUCACUCAGCAGGGCAUCUCUGAGGGAAAUGCC [C38U A138G] | 0.83
UACGUAGGUGGUUUUCCCCUGAUAGUGCUAAGGGGGCCUGGAAGUUUGGACUGGGCAGAGCUCAACACAGCGUGGCAAAGUGGCUGUGGCUAGUCUGCCUCUCUAGAUUCCUCGUCACUCAGCAGGGCAUCUCUGAGAGAAAUGCC [A94U G105A] | 0.21
